Molecular target: T1, murine TIM-3 protein with hFc tag (mTIM-3-hFc protein) (mouse; human, UniProt Q8VIM0 29-191)
T1 construct: Made in HEK293 cells; also called mouse TIM-3 extracellular domain protein; not shown: human IgG Fc fragment (hFc) of the pCpC vector
T1 chain: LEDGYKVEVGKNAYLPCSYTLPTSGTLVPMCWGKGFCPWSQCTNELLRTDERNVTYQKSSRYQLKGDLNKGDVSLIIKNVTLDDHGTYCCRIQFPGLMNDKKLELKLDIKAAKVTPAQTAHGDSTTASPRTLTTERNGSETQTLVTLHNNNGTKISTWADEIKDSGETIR
Experiment: ELISA, coated mTIM-3-hFc; antibody 0.0667 nM
OD450 overview
measured attribute: OD450

{"columns": ["binder", "measured result"],
 "data": [
  ["57F4E5 (TIM-3 antibody purified from hybridoma, chimeric antibody of Example 2) (antibody, V domains shown, From hybridoma of Harbour H2L2 transgenic mice: human variable regions, rat constant regions) VH: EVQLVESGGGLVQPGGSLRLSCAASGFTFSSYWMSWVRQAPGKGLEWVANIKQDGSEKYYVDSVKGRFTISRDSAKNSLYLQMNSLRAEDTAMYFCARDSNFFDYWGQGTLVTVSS VL: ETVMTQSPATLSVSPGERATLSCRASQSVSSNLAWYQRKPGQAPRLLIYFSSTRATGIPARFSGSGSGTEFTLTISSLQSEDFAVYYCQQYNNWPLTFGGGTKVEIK", 0.64],
  ["18D2H2 (TIM-3 antibody purified from hybridoma, chimeric antibody of Example 2) (antibody, V domains shown, From hybridoma of Harbour H2L2 transgenic mice: human variable regions, rat constant regions) VH: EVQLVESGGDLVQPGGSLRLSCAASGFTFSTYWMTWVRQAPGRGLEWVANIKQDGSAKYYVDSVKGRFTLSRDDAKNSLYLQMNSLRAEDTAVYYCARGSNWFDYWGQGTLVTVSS VL: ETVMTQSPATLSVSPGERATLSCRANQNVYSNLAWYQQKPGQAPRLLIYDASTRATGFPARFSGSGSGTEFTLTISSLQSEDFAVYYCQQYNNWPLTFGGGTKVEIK", 0.67],
  ["34B6D8 (TIM-3 antibody purified from hybridoma, chimeric antibody of Example 2) (antibody, V domains shown, From hybridoma of Harbour H2L2 transgenic mice: human variable regions, rat constant regions) VH: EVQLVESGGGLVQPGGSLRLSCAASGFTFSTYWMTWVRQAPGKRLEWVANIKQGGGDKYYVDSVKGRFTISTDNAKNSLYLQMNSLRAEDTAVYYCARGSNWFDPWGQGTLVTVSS VL: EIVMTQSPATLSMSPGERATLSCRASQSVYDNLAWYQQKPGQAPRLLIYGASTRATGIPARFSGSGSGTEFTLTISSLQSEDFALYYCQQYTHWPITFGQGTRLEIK", 0.68]
]}
